biological target: human JAK1 (a.a. 837-1142); test: In vitro JAK kinase assay (HTRF, phosphorylation of a biotinylated peptide), JAK1; assay type: biochemical; conditions: measured at 1 mM ATP; JAK2 IC50 / JAK1 IC50
MEASUREMENT KIND: IC50 Ratio JAK2/JAK1
Enter a number only.

- INPUT SMILES: "N#CCC1(n2cc(-c3ncnc4[nH]ccc34)cn2)CN(C2CCN(C(=O)c3ccc(F)c(F)c3)CC2)C1"
  IC50 Ratio JAK2/JAK1: 6.9
- INPUT SMILES: "Cc1ccc(C(=O)N2CCC(N3CC(CC#N)(n4cc(-c5ncnc6[nH]ccc56)cn4)C3)CC2)s1"
  IC50 Ratio JAK2/JAK1: 4.1

Continue with the next compound.
Check the records and state IC50 Ratio JAK2/JAK1 for COc1ccc(F)c(C(=O)N2CCC(N3CC(CC#N)(n4cc(-c5ncnc6[nH]ccc56)cn4)C3)CC2)c1 5.1
